test system: JAK2 (Homo sapiens (Human))
test description: Purified kinase assay (Z'-LYTE), JAK2
Format: biochemical
condition description: Table 2; read-out: JAK2
pIC50: −log10 of the molar value.
readout type: pIC50

Answered cases to consult:
molecule: CC(=O)N1CCN(c2ccc(Nc3cc(NCc4ccccc4F)c(C(N)=O)nn3)cc2)CC1 [Compound 18]
pIC50: 6.00 to 7.00

molecule: CC(=O)N1CCN(c2ccc(Nc3cc(NCc4cccc5[nH]ccc45)c(C(N)=O)nn3)cc2)CC1 [Compound 109]
pIC50: 7.00 to 8.00

molecule: CC(=O)N1CCN(c2ccc(Nc3cc(NCc4cccc5ccsc45)c(C(N)=O)nn3)cc2)CC1 [Compound 98]
pIC50: 7.00 to 8.00

Challenge: Write down the reported pIC50 of CC(=O)N1CCN(c2ccc(Nc3cc(NCc4cc(F)cc(F)c4)c(C(N)=O)nn3)cc2)CC1 [Compound 20] , test system: JAK2 (Homo sapiens (Human)).
Response given: 6.00 to 7.00

Challenge: Request: CCC(=O)N1CCN(c2ccc(Nc3cc(NCc4c(F)cccc4F)c(C(N)=O)nn3)cc2)CC1 [Compound 33]
Response given: 7.00 to 8.00

---

test system: TYK2 (Homo sapiens (Human))
Sequence (P29597 897-1176): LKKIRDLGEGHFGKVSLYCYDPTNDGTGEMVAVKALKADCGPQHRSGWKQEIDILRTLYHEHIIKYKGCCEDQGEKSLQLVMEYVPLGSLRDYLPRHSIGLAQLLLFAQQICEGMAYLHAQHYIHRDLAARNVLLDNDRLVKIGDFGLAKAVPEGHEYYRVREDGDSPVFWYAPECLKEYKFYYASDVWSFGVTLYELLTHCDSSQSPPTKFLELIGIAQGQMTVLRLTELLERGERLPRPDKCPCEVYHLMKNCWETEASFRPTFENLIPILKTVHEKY
test description: Purified kinase assay (Z'-LYTE), TYK2
Format: biochemical
condition description: Table 2; read-out: TYK2
// values below are reported IC50

Answered cases to consult:
molecule: CCC(=O)N1CCN(c2ccc(Nc3cc(NCc4c(F)cccc4F)c(C(N)=O)nn3)cc2)CC1 [Compound 33]
value reported: 10 to 100 nM
--
molecule: CC(=O)N1CCN(c2ccc(Nc3cc(NCc4cc(F)cc(F)c4)c(C(N)=O)nn3)cc2)CC1 [Compound 20]
value reported: 100 to 1000 nM
--
molecule: CC(=O)N1CCN(c2ccc(Nc3cc(NCc4ccccc4F)c(C(N)=O)nn3)cc2)CC1 [Compound 18]
value reported: 100 to 1000 nM

Challenge: Could you share which IC50 value was measured for CC(=O)N1CCN(c2ccc(Nc3cc(NCc4cccc5ccsc45)c(C(N)=O)nn3)cc2)CC1 [Compound 98] ?
Response given: > 1000 nM

---

test system: JAK2 (Homo sapiens (Human), UniProt O60674)
Sequence (O60674 849-1124): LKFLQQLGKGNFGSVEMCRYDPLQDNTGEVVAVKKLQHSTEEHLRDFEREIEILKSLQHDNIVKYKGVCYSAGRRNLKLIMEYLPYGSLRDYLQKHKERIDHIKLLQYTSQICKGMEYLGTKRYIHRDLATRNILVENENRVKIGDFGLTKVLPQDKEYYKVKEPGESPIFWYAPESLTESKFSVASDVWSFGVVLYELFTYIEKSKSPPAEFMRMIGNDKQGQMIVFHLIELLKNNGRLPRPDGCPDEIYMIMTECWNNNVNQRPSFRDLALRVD
test description: Purified kinase assay (Z'-LYTE), JAK2
Assay type: biochemical
condition description: Table 1; read-out: JAK2 IC50
// values below are reported IC50

compound string: CS(=O)(=O)Cc1ccc(Nc2cc(NCc3cccc(F)c3F)c(C(N)=O)nn2)cc1
IC50: 0.1 to 1 µM

compound string: COC(=O)N(C)c1ccc(Nc2cc(NCc3cccc(F)c3F)c(C(N)=O)nn2)cc1
IC50: > 1 µM

compound string: NC(=O)c1nnc(Nc2cnn(CC3CC3)c2)cc1NCc1cccc(F)c1
IC50: 0.1 to 1 µM

Challenge: Could you share which IC50 value was measured for Cn1cc(Nc2cc(NCc3cccc(F)c3)c(C(N)=O)nn2)cn1 ?
Response given: 0.1 to 1 µM

Challenge: Request: CCC(=O)N1CCC(Cn2cc(Nc3cc(NCc4cccc(F)c4)c(C(N)=O)nn3)cn2)CC1
Response given: 0.1 to 1 µM

Challenge: Request: NC(=O)c1nnc(Nc2ncc(C(=O)N3CCOCC3)s2)cc1NCc1cccc(F)c1
Response given: > 1 µM

Challenge: Request: NC(=O)c1nnc(Nc2cnn(CC3CCOCC3)c2)cc1NCc1cccc2ccsc12
Response given: 0.01 to 0.1 µM

Challenge: Request: NC(=O)c1nnc(Nc2ccc(OCCN3CCCC3)cc2)cc1NCc1cccc(F)c1
Response given: 0.1 to 1 µM

Challenge: Request: NC(=O)c1nnc(Nc2cc(F)c(N3CCOCC3)c(F)c2)cc1NCc1cccc(F)c1F
Response given: > 1 µM

---

test system: JAK2 (Homo sapiens (Human))
test description: Purified kinase assay (Z'-LYTE), JAK2
Type: biochemical
condition description: Table 1; read-out: JAK2 IC50
pIC50: −log10 of the molar value.
// values below are reported pIC50

Challenge: Could you share which pIC50 value was measured for CCC(=O)N1CCN(c2ccc(Nc3cc(NCc4c(F)cccc4F)c(C(N)=O)nn3)cc2)CC1 ?
Response given: 7.00 to 8.00

Challenge: Request: CC(C)n1cc(Nc2cc(NCc3cccc4ccsc34)c(C(N)=O)nn2)cn1
Response given: 7.00 to 8.00

Challenge: Request: CC(=O)N1CCN(c2ccc(Nc3cc(NC4CCN(c5ccc(C#N)cn5)CC4)c(C(N)=O)nn3)cc2)CC1
Response given: 7.00 to 8.00

Challenge: Request: CC(=O)N1CCN(c2ccc(Nc3cc(NC(C)C)c(C(N)=O)nn3)cc2)CC1
Response given: < 6.00

---

// values below are reported IC50
test system: TYK2 (Homo sapiens (Human))
test description: Purified kinase assay (Z'-LYTE), TYK2
Format: biochemical
condition description: Table 1; read-out: Tyk2 IC50

compound string: NC(=O)c1nnc(Nc2cccc(OCCN3CCCC3)c2)cc1NCc1cccc(F)c1
IC50: > 1 µM
--
compound string: CN(C)C(=O)c1ccc(Nc2cc(NCc3cccc(F)c3)c(C(N)=O)nn2)cc1
IC50: > 1 µM
--
compound string: Cc1cc(Nc2cc(NCc3cccc(F)c3F)c(C(N)=O)nn2)ccc1C(=O)N1CCCC1
IC50: 0.1 to 1 µM
--
compound string: CC(=O)N1CCN(c2ccc(Nc3cc(NCc4cccc5ccsc45)c(C(N)=O)nn3)cc2)CC1
IC50: > 1 µM

Challenge: Could you share which IC50 value was measured for Cc1cc(Nc2cc(NCc3cccc(F)c3)c(C(N)=O)nn2)ccc1C(=O)N1CCCC1 ?
Response given: 0.1 to 1 µM

Challenge: Request: NC(=O)c1nnc(Nc2ccc(N3CCNCC3)cc2)cc1NCc1cccc2ccsc12
Response given: 0.1 to 1 µM

Challenge: Request: CCC(=O)N1CCN(c2ccc(Nc3cc(NCc4c(F)cccc4F)c(C(N)=O)nn3)cc2)CC1
Response given: 0.01 to 0.1 µM

Challenge: Request: CS(=O)(=O)Cc1ccc(Nc2cc(NCc3cccc(F)c3F)c(C(N)=O)nn2)cc1
Response given: 0.1 to 1 µM

---

test system: JAK3 (Homo sapiens (Human), UniProt P52333)
Sequence (P52333 822-1111): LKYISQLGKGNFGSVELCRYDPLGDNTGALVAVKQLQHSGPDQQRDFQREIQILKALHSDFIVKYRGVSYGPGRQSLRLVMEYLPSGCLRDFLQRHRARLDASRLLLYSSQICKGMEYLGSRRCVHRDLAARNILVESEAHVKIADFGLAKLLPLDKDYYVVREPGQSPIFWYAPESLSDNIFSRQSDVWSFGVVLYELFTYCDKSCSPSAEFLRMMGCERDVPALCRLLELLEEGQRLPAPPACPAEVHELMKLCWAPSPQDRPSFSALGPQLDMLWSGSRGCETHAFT
test description: Purified kinase assay (Z'-LYTE), JAK3
Assay type: biochemical
condition description: Table 1; read-out: JAK3 IC50
readout type: IC50

molecule: CS(=O)(=O)Cc1cccc(Nc2cc(NCc3cccc(F)c3)c(C(N)=O)nn2)c1 [Compound 91]
IC50: 0.01 to 0.1 µM

molecule: NC(=O)c1nnc(Nc2ccc(N3CCOCC3)c(F)c2)cc1NCc1cccc(F)c1F [Compound 43]
IC50: 0.01 to 0.1 µM

molecule: CS(=O)(=O)Cc1ccc(Nc2cc(NCc3cccc4ccsc34)c(C(N)=O)nn2)cc1 [Compound 100]
IC50: 0.001 to 0.01 µM

molecule: NC(=O)c1nnc(Nc2cnn(CC3CCOCC3)c2)cc1NCc1cccc2ccsc12 [Compound 121]
IC50: 0.001 to 0.01 µM

molecule: CC(=O)N1CCN(c2ccc(Nc3cc(NCc4cccc(Cl)c4)c(C(N)=O)nn3)cc2)CC1 [Compound 46]
IC50: 0.01 to 0.1 µM

Challenge: Write down the reported IC50 of CC(=O)N1CCN(c2ccc(Nc3cc(NCc4cccc5ccsc45)c(C(N)=O)nn3)cc2)CC1 [Compound 98] , test system: JAK3 (Homo sapiens (Human), UniProt P52333).
Response given: 0.001 to 0.01 µM

Challenge: Request: COc1cc(Nc2cc(NCc3cccc(F)c3)c(C(N)=O)nn2)ccc1C(=O)N1CCCC1 [Compound 53]
Response given: 0.01 to 0.1 µM

---

test system: JAK1 (Homo sapiens (Human), UniProt P23458)
Sequence (P23458 875-1153): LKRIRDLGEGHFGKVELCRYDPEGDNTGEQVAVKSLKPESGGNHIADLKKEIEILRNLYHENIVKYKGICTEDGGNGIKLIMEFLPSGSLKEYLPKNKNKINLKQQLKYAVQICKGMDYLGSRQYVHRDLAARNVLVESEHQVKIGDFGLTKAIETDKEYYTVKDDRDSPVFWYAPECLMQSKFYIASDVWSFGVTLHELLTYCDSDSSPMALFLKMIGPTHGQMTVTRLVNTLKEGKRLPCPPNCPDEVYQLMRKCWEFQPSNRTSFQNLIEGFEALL
test description: Purified kinase assay (Z'-LYTE), JAK1
Type: biochemical
condition description: Table 1; read-out: JAK1 IC50
pIC50: −log10 of the molar value.
// values below are reported pIC50

compound string: CC(C)(c1ccc(Nc2cc(NCc3cccc(F)c3)c(C(N)=O)nn2)cc1)S(C)(=O)=O
pIC50: < 6.00
--
compound string: CCC(=O)N1CCC(c2ccc(Nc3cc(NCc4cc(F)cc(F)c4)c(C(N)=O)nn3)cc2)CC1
pIC50: < 6.00
--
compound string: CC(=O)N1CCN(c2ccc(Nc3cc(NCc4cc(-c5cccnc5)ccc4F)c(C(N)=O)nn3)cc2)CC1
pIC50: < 6.00
--
compound string: NC(=O)c1nnc(Nc2ccc(N3CCNCC3)cc2)cc1NC1CCCCC1
pIC50: < 6.00
--
compound string: CC(=O)N1CCN(c2ccc(Nc3cc(NC4CCN(c5ccc(C#N)cn5)CC4)c(C(N)=O)nn3)cc2)CC1
pIC50: 7.00 to 8.00

Challenge: Could you share which pIC50 value was measured for NC(=O)c1nnc(Nc2ccc(N3CCOCC3)c(F)c2)cc1NCc1cccc(F)c1F ?
Response given: < 6.00

Challenge: Request: CC(=O)N1CCN(c2ccc(Nc3cc(NCc4cccc(C)c4)c(C(N)=O)nn3)cc2)CC1
Response given: < 6.00

Challenge: Request: CC(=O)N1CCN(c2ccc(Nc3cc(NCc4cccc(Cl)c4)c(C(N)=O)nn3)cc2)CC1
Response given: 6.00 to 7.00
